molecular target: PfRH5 from Plasmodium falciparum strain D10 (Plasmodium falciparum); assay: cell-based or functional assay
Max growth inhibition (%) by entry:
Answer format: numeric, % implied, no suffix.

Reported Max growth inhibition (%), binder H1H29089P (antibody, V domains shown) VH: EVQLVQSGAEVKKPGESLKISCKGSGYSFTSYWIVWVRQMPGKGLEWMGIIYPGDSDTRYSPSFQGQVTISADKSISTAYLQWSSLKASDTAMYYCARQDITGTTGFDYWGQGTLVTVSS VL: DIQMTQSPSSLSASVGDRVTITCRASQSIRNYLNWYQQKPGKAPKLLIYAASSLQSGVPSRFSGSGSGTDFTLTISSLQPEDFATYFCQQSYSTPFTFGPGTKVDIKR : ____ 82.3

Data request, read-out Max growth inhibition (%), for H1H29104P (antibody, V domains shown) VH: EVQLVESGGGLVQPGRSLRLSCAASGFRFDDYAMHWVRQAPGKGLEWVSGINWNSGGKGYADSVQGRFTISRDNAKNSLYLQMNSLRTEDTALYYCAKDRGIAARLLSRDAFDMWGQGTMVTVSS VL: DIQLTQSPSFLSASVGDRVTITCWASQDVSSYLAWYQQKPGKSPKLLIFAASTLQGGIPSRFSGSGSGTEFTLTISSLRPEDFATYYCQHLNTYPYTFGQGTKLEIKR 55.7
